- Protocol summary: Ex vivo bio-distribution at 1 h and 2 h post-injection
- Type: in vivo, mice
- Condition details: mouse, tumor, iv, 1 mCi, total radioactivity, untreated control tumors, 1 h post-injection; read-out: tumoral uptake, untreated control tumors, 1 h
- Source text: Following injection with ˜1 mCi of ^68Ga-NOTA-GP (see Example 1) via tail-vein mice were sacrificed at either one-hour or two-hour time-points. Mouse urine, blood, tumor, and vital organs were sampled, and radioactivity assessed on a gamma-counter. Following imaging, mice were sacrificed and tumoral GZB expression quantified by Western blot. […]
Residues, ends and D or L forms follow the SMILES beside them. *: point of attachment. X1 = O=C(O)CN1CCN(CC(=O)O)CC(Cc2ccc(NC(=S)*)cc2)N(CC(=O)O)CC1
Experimental readout: tissue uptake at 1 h

CCC(C)C(NC(=O)CNC(=O)CNC(=O)CNC(=S)Nc1ccc(CC2CN(CC(=O)O)CCN(CC(=O)O)CCN2CC(=O)O)cc1)C(=O)NC(CCC(=O)O)C(=O)NC(Cc1ccccc1)C(=O)NC(C=O)CC(=O)O (stereo not shown) [^68Ga-NOTA-GP, metal not drawn] (X1-GGGIEFD-aldehyde; configuration not given here) ... 0.7 %ID/g
